Read-out: Transforming growth factor beta 1 (TGFb1), TGFB1 (gene 7040)
Experimental protocol: BSK_KF3CT_TGFb1: BioMAP Diversity Plus: KF3CT Assay for Transforming growth factor beta 1 (TGFb1) Biomarker Activity (AID 2283072)
Test parameters: primary human keratinocytes with fibroblasts; actives raise or lower the signal
The source made the active and inactive calls. How the source made its calls: active means hit-call score of the fitted dose curve at least 0.9, where 1 is the maximum; inactive means score below 0.9.
Outcomes you can answer with include only these: active, inactive

# count of solved cases: 6
C[C@]12CC[C@@H]3c4ccc(O)cc4CC[C@H]3[C@@H]1C[C@@H](O)[C@@H]2O inactive
Cc1cccc2c1ccc1ccccc12 inactive
CCCCCCCCCCCCCCCCCC[N+](C)(C)Cc1ccccc1 inactive
CCCCCc1ccc(O)cc1 active
COc1cc(OC)nc(NC(=O)NS(=O)(=O)Nc2ccccc2C(=O)N(C)C)n1 inactive
O=C1c2ccc(O)c(O)c2C(=O)c2c(O)ccc(O)c21 inactive

Problem: # lookup: test call for CCCCC=O
Solution: inactive

// data source = PubChem BioAssay (EPA / NIEHS)
